# procedure.summary: MSCR test, percentage elastic recovery
# Format: physicochemical
# protocol.conditions: bitumen 20/30 + 5% compound; 1.6 kPa
Rule for this label: label 1 means MSCR % Rec. (1.6 kPa) is less than 5%; label 0 means MSCR % Rec. (1.6 kPa) is at least 5%.

Solved entries (count: 4):
molecule: CC(C)CCCCCCOC(=O)C1CCCCC1C(=O)OCCCCCCC(C)C (stereo not drawn) [Hexamoll ® DINCH, diisononyl cyclohexane-1,2-dicarboxylate]
cat: label 1
//
molecule: CC(C)CCCCCCOC(=O)c1ccccc1C(=O)OCCCCCCC(C)C [Palatinol ® DINP, diisononyl phthalate]
cat: label 1
//
molecule: CC(COCC1CO1)(COCC1CO1)c1ccccc1 (stereo not drawn)
cat: label 1
//
molecule: CCCCCCCCCCCCN1CCCC1=O [N-Dodecyl pyrrolidone]
cat: label 1

Query: Does the reported MSCR % Rec. (1.6 kPa) of CCCCCCCCCCCCc1ccc(S(=O)(=O)O)cc1 [Dodecylbenzene sulfonic acid] stay below 5%?
Response: label 0

Origin of the recorded values: patent US20230220206A1
